// data source = paper PMC10126473

# procedure-summary: Mouse PK and tissue distribution study (non-compartmental analysis)
# condition-details: male, C57BL/6, mouse, in vivo, po, 10 mg/kg, Tmax Obs, mice, PO 10 mg/kg PDN, kidney
quantity-measured: Tmax

Which Tmax is reported for this molecule? `O=C(Nc1ccc([N+](=O)[O-])cc1Cl)c1cc(Cl)ccc1OC(=O)N1CCNCC1`
1.5 h

###

# procedure-summary: Hamster PK and lung concentration study (non-compartmental analysis)
# condition-details: male, LVG golden Syrian, hamster, in vivo, iv, 3 mg/kg
quantity-measured: clearance (mL/min)
Response body: numeric value in mL/min, unit text excluded.

Which clearance is reported for this compound? `O=C(Nc1ccc([N+](=O)[O-])cc1Cl)c1cc(Cl)ccc1OC(=O)N1CCNCC1`
8

###

# procedure-summary: Mouse PK and tissue distribution study (non-compartmental analysis)
# condition-details: male, C57BL/6, mouse, in vivo, iv, 10 mg/kg, volume of distribution at steady-state (Vdss), mice, IV 3 and 10 mg/kg PDN
quantity-measured: Vd

Which Vd is reported for this molecule? `O=C(Nc1ccc([N+](=O)[O-])cc1Cl)c1cc(Cl)ccc1OC(=O)N1CCNCC1`
0.28 to 0.31 L

###

# procedure-summary: Mouse PK and tissue distribution study (non-compartmental analysis)
# condition-details: male, C57BL/6, mouse, in vivo, iv, 10 mg/kg, t1/2 Obs, mice, IV 10 mg/kg PDN, brain
quantity-measured: half-life (h)
Response body: numeric value in h, unit text excluded.

Which half-life is reported for this compound? `O=C(Nc1ccc([N+](=O)[O-])cc1Cl)c1cc(Cl)ccc1OC(=O)N1CCNCC1`
3.39

###

# procedure-summary: Mouse PK and tissue distribution study (non-compartmental analysis)
# condition-details: male, C57BL/6, mouse, in vivo, iv, 3 mg/kg, t1/2 Obs, mice, IV 3 mg/kg PDN, kidney
quantity-measured: half-life

Which half-life is reported for this molecule? O=C(Nc1ccc([N+](=O)[O-])cc1Cl)c1cc(Cl)ccc1OC(=O)N1CCNCC1 [PDN]
3.1 h

###

# procedure-summary: Mouse PK and tissue distribution study (non-compartmental analysis)
# condition-details: male, C57BL/6, mouse, in vivo, po, 10 mg/kg
quantity-measured: CL/F (mL/min)
Response body: numeric value in mL/min, unit text excluded.

Which CL/F is reported for this molecule? `O=C(Nc1ccc([N+](=O)[O-])cc1Cl)c1cc(Cl)ccc1OC(=O)N1CCNCC1`
1.18

###

# procedure-summary: in vivo
# condition-details: male, LVG golden Syrian, hamster, in vivo, po, 30 mg/kg, Tmax Observed
quantity-measured: Tmax (h)
Response body: numeric value in h, unit text excluded.

Which Tmax is reported for this molecule? O=C(Nc1ccc([N+](=O)[O-])cc1Cl)c1cc(Cl)ccc1O [Nc, Niclosamide, reference compound]
1

###

# procedure-summary: Mouse PK and tissue distribution study (non-compartmental analysis)
# condition-details: male, C57BL/6, mouse, in vivo, iv, 10 mg/kg, t1/2 Obs, mice, IV 10 mg/kg PDN, plasma
quantity-measured: half-life (h)
Response body: numeric value in h, unit text excluded.

Which half-life is reported for this compound? `O=C(Nc1ccc([N+](=O)[O-])cc1Cl)c1cc(Cl)ccc1OC(=O)N1CCNCC1`
3.52

###

# procedure-summary: Mouse PK and tissue distribution study (non-compartmental analysis)
# condition-details: male, C57BL/6, mouse, in vivo, po, 10 mg/kg, t1/2 Obs, mice, PO 10 mg/kg PDN, kidney
quantity-measured: half-life (h)
Response body: numeric value in h, unit text excluded.

Which half-life is reported for this compound? O=C(Nc1ccc([N+](=O)[O-])cc1Cl)c1cc(Cl)ccc1OC(=O)N1CCNCC1 [PDN]
2.99
